Catalogue of compounds with associated inhibition
Test system: Drosophila bursicon receptor LGR2 (rickets)
Assay: inhibitors of bursicon-induced LGR2 CRE-luciferase signal, primary screen, cell-based, HEK293, CRE-luciferase reporter, bursicon stimulation (AID 720647);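 further: agonist challenge used bursicon conditioned medium at about half maximal strength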
Conditions: bursicon-stimulated, 4 h, at 9.99 µM, active compounds read high
Screen size: about 380,000 compounds; about 1,300 (0.34%) were called active. What follows is part of a selection rich in actives, with near analogues and random picks from the rest.
PROPERTY_LABEL: inhibition (%)

INSERT INTO assay_data (compound, property_label, endpoint_result) VALUES
  ('COC1C(O)C(C)OC(OC2CCC3(C=O)C(CCC4C3CCC3(C)C(C5=CC(=O)OC5)CCC43O)C2)C1O (stereo not drawn)', 'inhibition', 83.8),
  ('COc1ccc2c(c1)[C@@]13CCCCC1[C@@H](C2)NCC3 (stereo partly drawn)', 'inhibition', 15.4),
  ('COC(=O)[C@H]1[C@H](CO)[C@H]2Cn3c(cccc3=O)[C@H]2N1CC1CC1', 'inhibition', 26.9),
  ('Cc1cc(N2CCNC[C@@H]2C)ccc1N1CC[C@H](O)C1', 'inhibition', -14.4),
  ('O=C(Cc1ccccn1)N1CCCCN2[C@H](C1)[C@H](c1ccc(-c3ccccc3F)cc1)[C@@H]2CO', 'inhibition', 20.2),
  ('C/C=C/c1ccc(C2[C@@H]3CN(Cc4cncnc4)C[C@H]2N3)cc1 (stereo partly drawn)', 'inhibition', -8.19),
  ('CCC(C)NC1(c2ccccc2)CCCCC1 (stereo not drawn)', 'inhibition', -0.048),
  ('CCOc1ccc(-c2cc(C)[n+](CCN(CC)CC)c(-c3ccc(OCC)cc3)c2)cc1', 'inhibition', 60.4),
  ('O=C(Cc1ccccn1)N1CCCCN2[C@@H](CO)[C@@H](c3ccc(C#Cc4ccccc4)cc3)[C@@H]2C1', 'inhibition', -13.4),
  ('CCC(C)(O)C(=O)OC1C(=O)OC2CC3C(C)=CC(=O)C(O)C3(C)C3C4(O)OCC23C1C(C)C4O (stereo not drawn)', 'inhibition', 101),
  ('O=C(Cc1ccncc1)N1CCCCN2[C@@H](CO)[C@H](c3ccc(C#CC4(O)CCCC4)cc3)[C@@H]2C1', 'inhibition', -0.939),
  ('CN1CCN(c2cc(N3CCNCC3)ccc2[N+](=O)[O-])CC1', 'inhibition', 1.9),
  ('O=C(Cc1ccccc1)N1CCCCN2[C@H](CO)[C@H](c3ccc(C#Cc4ccccc4)cc3)[C@H]2C1', 'inhibition', 0.501),
  ('COC(=O)[C@@H]1[C@@H](CO)[C@@H]2Cn3c(ccc(-c4ccc(F)cc4)c3=O)[C@H]1N2C(C)=O', 'inhibition', -7.85),
  ('C[C@]12CCC3C(CC[C@H]4C[C@@H](O)CC[C@]34C)C1C[C@@H](O)[C@H]2O (stereo partly drawn)', 'inhibition', 21.8),
  ('Clc1ccc([C@@H]2CC3CCC2N3)cn1 (stereo partly drawn)', 'inhibition', 7.28),
  ('C[C@]12CC[C@H](O)C[C@H]1CC[C@@H]1C2CC[C@]2(C)[C@@H](C3=CC(=O)OC3)[C@@H](O)C[C@]12O (stereo partly drawn)', 'inhibition', 75.1),
  ('CCN(CC)C(=O)[C@@H]1C=C2c3cccc4[nH]c(Br)c(c34)C[C@H]2N(C)C1', 'inhibition', 9.95);
